- measurement-target: cyclin D1/cdk 4 enzyme (Homo sapiens)
- Construct: made in house; host or cells: Sf9 insect cells, recombinant baculovirus
- Sequence (P11802 whole entry, species assumed): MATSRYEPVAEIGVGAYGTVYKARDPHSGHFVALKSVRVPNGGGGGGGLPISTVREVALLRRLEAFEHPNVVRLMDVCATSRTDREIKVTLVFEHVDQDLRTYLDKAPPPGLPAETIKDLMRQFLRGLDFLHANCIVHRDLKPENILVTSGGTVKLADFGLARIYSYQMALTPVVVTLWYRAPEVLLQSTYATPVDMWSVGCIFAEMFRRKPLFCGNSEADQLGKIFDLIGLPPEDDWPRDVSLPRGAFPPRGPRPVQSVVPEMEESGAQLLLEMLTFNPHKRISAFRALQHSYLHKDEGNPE
- Sequence (P24385 whole entry partner, species assumed): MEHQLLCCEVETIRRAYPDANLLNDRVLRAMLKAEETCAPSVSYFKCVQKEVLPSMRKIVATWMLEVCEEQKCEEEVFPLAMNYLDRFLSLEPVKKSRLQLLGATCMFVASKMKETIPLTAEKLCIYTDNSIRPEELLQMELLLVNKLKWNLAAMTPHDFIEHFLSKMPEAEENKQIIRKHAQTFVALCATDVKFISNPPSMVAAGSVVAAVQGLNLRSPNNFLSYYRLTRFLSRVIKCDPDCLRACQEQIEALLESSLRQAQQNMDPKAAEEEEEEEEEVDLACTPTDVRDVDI
- procedure-summary: CDK4 ELISA kinase assay (phospho-Rb ser 795 detection)
- Format: biochemical
- cond: In Vitro Enzyme Assays, 200 μM ATP, read-out: CDK4 IC50
assay-metric: IC50 (µM)

compound: COc1ccc(CNC=C2C(=O)NCc3ccccc32)cc1O [Example 160]
measurement-target: cyclin D1/cdk 4 enzyme (Homo sapiens)
assay-metric: IC50
reading-unit: µM
test-result: 20.4

compound: C[C@@H]1CN(c2c(F)cc(N/C=C3\C(=O)NC(=O)c4ccc(Br)cc43)cc2F)C[C@H](C)N1 [Example 381]
measurement-target: cyclin D1/cdk 4 enzyme (Homo sapiens)
assay-metric: IC50
reading-unit: µM
test-result: 13.2

(I) O=C1NC(=O)c2ccc(-c3ccsc3)cc2/C1=C/Nc1ccc(CN2CCC[C@@H]2CO)cc1 (stereo in doubt) [Example 421]
(II) CN(C)C1CCN(Cc2ccc(N/C=C3\C(=O)NC(=O)c4ccc(I)cc43)cc2)C1 (centres unmarked) [Example 422]
(III) CN1CCN(CCCNC=C2C(=O)NC(=O)c3ccc(-n4cccc4)cc32)CC1 [Example 279]
QUERY: Rank entries according to their IC50, from the largest number down. Respond with the label ranking, as requested.
RESULT: II, III, I

The measurements presented in this section are drawn from patent US7713994B2.
